assay: Penetration into brain and peripheral nerve in dogs; type: in vivo, dog; conditions: dog, brain/plasma, po, 25 mg kg-1, dog G, 25 mg kg-1 oral, 4 h; read-out: brain/plasma ratio
quantity_name: Kp at 4 h

1) O=C(Cn1ccnc1[N+](=O)[O-])NCc1ccccc1 [benznidazole, N-benzyl-(2-nitroimidazolyl) acetamide]; 0.26

* * *

Experiment: Whole plasma pharmacokinetics in dogs (HPLC)
Assay type: in vivo, dog
Conditions: collie crossbred, dog, plasma, iv, 5 mg/kg, dog D, 5 mg kg-1 i.v.
Description: Br. J. Cancer (1984), 50, 291-303 Preclinical pharmacokinetics of benznidazole P. Workman', R.A.S. White2, M.I. Walton', L.N. Owen2* & P.R. Twentyman' 1MRC Clinical Oncology and Radiotherapeutics Unit, MRC Centre, Hills Road, Cambridge CB2 2QH, and 2Department of Clinical Veterinary Medicine, University of Cambridge, Madingley Road, Cambridge CB3 OES, UK. […]
quantity_name: clearance (mL/min/kg)

1) O=C(Cn1ccnc1[N+](=O)[O-])NCc1ccccc1 [benznidazole, N-benzyl-(2-nitroimidazolyl) acetamide]; 0.603
